# MEASURED_ON: ROCK1 (Homo sapiens (Human))
# ASSAY_NAME: Direct filter-binding radiometric kinase assay, IC50 determination
# Type: biochemical
# EXPERIMENTAL_PARAMETERS: read-out: Compound IC50 ROCK1 70 μM ATP; Km ATP 70 μM; Table 3
ASSAY_METRIC: IC50 (µM)
Provide the reading as a plain figure in µM.

Identify measured IC50 associated with C[C@H](N)C1CCN(S(=O)(=O)c2cccc3cnccc23)CC1 57.9

###

# MEASURED_ON: ROCK2 (Homo sapiens (Human))
# ASSAY_NAME: Direct filter-binding radiometric kinase assay, IC50 determination
# Type: biochemical
# EXPERIMENTAL_PARAMETERS: Compound IC50 ROCK2 15 μM ATP, Km ATP 15 μM; Table 7
ASSAY_METRIC: pIC50
Reminder that pIC50 is minus the log10 of a molar concentration.

Identify measured pIC50 associated with C[C@@H](N)C1CCN(S(=O)(=O)c2cccc3cnccc23)CC1 [BA-1049 (R)] 6.47

###

# MEASURED_ON: ROCK1 (Homo sapiens (Human), UniProt Q13464)
# Sequence (Q13464 2-1354 limits assumed): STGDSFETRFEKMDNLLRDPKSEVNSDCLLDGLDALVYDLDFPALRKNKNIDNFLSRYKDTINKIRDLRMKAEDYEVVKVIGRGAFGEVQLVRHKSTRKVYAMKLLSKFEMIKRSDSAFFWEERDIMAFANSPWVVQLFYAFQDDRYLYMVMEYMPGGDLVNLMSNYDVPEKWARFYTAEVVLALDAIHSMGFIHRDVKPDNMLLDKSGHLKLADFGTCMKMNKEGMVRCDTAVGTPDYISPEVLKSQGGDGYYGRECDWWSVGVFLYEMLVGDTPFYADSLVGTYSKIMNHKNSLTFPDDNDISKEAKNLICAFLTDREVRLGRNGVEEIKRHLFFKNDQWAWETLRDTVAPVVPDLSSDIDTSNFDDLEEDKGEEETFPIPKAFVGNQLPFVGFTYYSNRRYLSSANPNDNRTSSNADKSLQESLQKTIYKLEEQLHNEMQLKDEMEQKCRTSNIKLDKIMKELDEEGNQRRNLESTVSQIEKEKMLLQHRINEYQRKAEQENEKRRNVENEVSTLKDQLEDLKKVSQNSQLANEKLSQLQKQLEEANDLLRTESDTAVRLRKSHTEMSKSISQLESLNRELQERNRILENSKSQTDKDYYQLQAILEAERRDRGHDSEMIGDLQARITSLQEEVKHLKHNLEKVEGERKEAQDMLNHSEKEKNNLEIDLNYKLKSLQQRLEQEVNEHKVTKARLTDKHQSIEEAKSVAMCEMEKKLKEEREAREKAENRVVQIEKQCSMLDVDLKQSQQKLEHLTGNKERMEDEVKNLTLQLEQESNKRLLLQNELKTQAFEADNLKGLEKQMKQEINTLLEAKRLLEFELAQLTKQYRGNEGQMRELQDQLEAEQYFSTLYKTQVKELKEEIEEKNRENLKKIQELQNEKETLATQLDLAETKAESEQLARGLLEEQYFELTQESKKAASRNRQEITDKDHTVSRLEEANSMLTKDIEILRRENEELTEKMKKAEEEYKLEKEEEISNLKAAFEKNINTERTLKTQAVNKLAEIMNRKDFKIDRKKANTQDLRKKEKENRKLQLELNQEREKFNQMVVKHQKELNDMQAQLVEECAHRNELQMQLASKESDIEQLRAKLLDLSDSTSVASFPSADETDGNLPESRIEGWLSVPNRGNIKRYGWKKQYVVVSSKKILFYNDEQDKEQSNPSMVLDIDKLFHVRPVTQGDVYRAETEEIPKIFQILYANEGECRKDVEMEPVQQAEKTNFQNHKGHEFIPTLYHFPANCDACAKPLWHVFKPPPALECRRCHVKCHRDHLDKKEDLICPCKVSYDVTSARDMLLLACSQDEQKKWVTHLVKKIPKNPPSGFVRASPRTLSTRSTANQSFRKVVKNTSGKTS
# ASSAY_NAME: biochemical
# EXPERIMENTAL_PARAMETERS: ROCK1 KD, average of duplicate determinations; Table 5
ASSAY_METRIC: Kd (nM)
Provide the reading as a plain figure in nM.

Find Kd for C[C@@H](N)C1CCN(S(=O)(=O)c2cccc3cnccc23)CC1 [BA-1049 (R)] on ROCK1 (Homo sapiens (Human), UniProt Q13464) and write it down. 99

###

# MEASURED_ON: ROCK2 (Homo sapiens (Human), UniProt O75116)
# ASSAY_NAME: biochemical
# EXPERIMENTAL_PARAMETERS: ROCK2 KD, average of duplicate determinations; Table 5
ASSAY_METRIC: pKd
Reminder that pKd is minus the log10 of a molar concentration.

Find pKd for C[C@@H](N)C1CCN(S(=O)(=O)c2cccc3cnccc23)CC1 [BA-1049 (R)] on ROCK2 (Homo sapiens (Human), UniProt O75116) and write it down. 7.20

###

# MEASURED_ON: ROCK2 (Homo sapiens (Human))
# ASSAY_NAME: Direct filter-binding radiometric kinase assay, IC50 determination
# Format: biochemical
# EXPERIMENTAL_PARAMETERS: read-out: Compound IC50 ROCK2 10 μM ATP; CRO Reaction Biology, 10 μM ATP; listed as Racemic BA-1049: Lot 1
ASSAY_METRIC: pIC50
Reminder that pIC50 is minus the log10 of a molar concentration.

Find pIC50 for CC(N)C1CCN(S(=O)(=O)c2cccc3cnccc23)CC1 (racemic) [BA-1049] on ROCK2 (Homo sapiens (Human)) and write it down. 6.22

###

# MEASURED_ON: ROCK2 (Homo sapiens (Human), UniProt O75116)
# ASSAY_NAME: Direct filter-binding radiometric kinase assay, IC50 determination
# Format: biochemical
# EXPERIMENTAL_PARAMETERS: 10 μM ATP; Table 2; read-out: Compound IC50 ROCK2
ASSAY_METRIC: IC50 (nM)
Provide the reading as a plain figure in nM.

MOLECULE	U	OBSERVED_RESULT
C[C@H](N)C1CCN(S(=O)(=O)c2cccc3cnccc23)CC1	nM	730

Could you now consider this next molecule?
Identify measured IC50 associated with C[C@@H](N)C1CCN(S(=O)(=O)c2cccc3cnccc23)CC1 [BA-1049 (R)] 240
